// data source = paper PMC11784839

For each entry below, report its raw data 1 value.
# study.system: tau (Homo sapiens, UniProt P10636)
# Sequence (P10636 623-695 limits assumed): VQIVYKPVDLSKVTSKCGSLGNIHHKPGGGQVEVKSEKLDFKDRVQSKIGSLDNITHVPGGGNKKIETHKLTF
# test.protocol: MCE Phenols Library screening, tau biosensor cell seeding assay (AvZ)
# Format: cell-based
# condition: puncta, replicate 1
Enter the number alone.

Briefly, raw data 1 measured for C=C(C)[C@H](CC=C(C)C)Cc1c(O)cc(OC)c2c1O[C@H](c1ccc(O)cc1O)[C@@H](O)C2=O : 33117.8

Briefly, raw data 1 measured for C[C@@H]1O[C@@H](OC[C@H]2O[C@@H](Oc3c(-c4ccc(O)cc4)oc4cc(O)cc(O)c4c3=O)[C@H](O[C@@H]3O[C@@H](C)[C@H](O)[C@@H](O)[C@H]3O)[C@@H](O)[C@H]2O)[C@H](O)[C@H](O)[C@H]1O : 35719.4

Briefly, raw data 1 measured for CC(=O)O[C@H](CC=C(C)C)C1=CC(=O)c2c(O)ccc(O)c2C1=O : 33102.4

Briefly, raw data 1 measured for Cc1cc(O)cc(C)c1O [2,6-Dimethylhydroquinone] : 31637.3

Briefly, raw data 1 measured for O=C(O[C@@H]1Cc2c(O)cc(O)cc2O[C@@H]1c1cc(O)c(O)c2c(=O)c(O)cc([C@H]3Oc4cc(O)cc(O)c4C[C@H]3O)cc12)c1cc(O)c(O)c(O)c1 [Theaflavin-3'-gallate] : 542.499

Briefly, raw data 1 measured for O=c1c(-c2ccc(O)c(O)c2)coc2c([C@@H]3O[C@H](CO)[C@@H](O)[C@H](O)[C@H]3O)c(O)ccc12 [3'-Hydroxypuerarin] : 17766.4

Briefly, raw data 1 measured for O=C(O)c1ccccc1O [Salicylic acid, reference compound] : 14164.1

Briefly, raw data 1 measured for COc1cc2c(O)c3c(c(-c4ccc5c(c4)OCO5)c2cc1OC)C(=O)OC3 : 22335.7

Briefly, raw data 1 measured for COC(=O)/C=C/c1ccc(O)cc1 [(E)-Methyl 4-coumarate] : 30381.4

Briefly, raw data 1 measured for O=C(O)c1ccc(O)cc1O [2,4-Dihydroxybenzoic acid] : 33969.7

Briefly, raw data 1 measured for O=c1cc(-c2ccc(O)cc2)oc2cc(O[C@@H]3O[C@H](CO)[C@@H](O)[C@H](O)[C@H]3O)cc(O)c12 [Apigenin 7-glucoside] : 32570.5

Briefly, raw data 1 measured for C[C@@H]1O[C@@H](O[C@H]2C(=O)c3c(O)cc(O)cc3O[C@H]2c2ccc(O)c(O)c2)[C@H](O)[C@H](O)[C@H]1O : 34290.2

Briefly, raw data 1 measured for COc1cc(C)ccc1O : 30100.9

Briefly, raw data 1 measured for COc1cc(C(=O)O)cc(O)c1O : 13858.8

Briefly, raw data 1 measured for COc1ccc(-c2coc3cc(O[C@@H]4O[C@H](CO)[C@@H](O)[C@H](O)[C@H]4O)c(OC)c(O)c3c2=O)cc1O : 27620

Briefly, raw data 1 measured for CC(=O)Oc1ccc(/C=C/c2cc(OC(C)=O)cc(OC(C)=O)c2)cc1 : 14710.4

Briefly, raw data 1 measured for O=C(O[C@@H]1Cc2c(O)cc(O)cc2O[C@@H]1c1cc(O)c(=O)c2c(O)c(O)cc([C@H]3Oc4cc(O)cc(O)c4C[C@H]3O)c2c1)c1cc(O)c(O)c(O)c1 [Theaflavin-3-gallate] : 1914.49

Briefly, raw data 1 measured for COc1c(O)cc(O)c2c(=O)cc(-c3ccccc3)oc12 : 36560.6
